- Test system: Plasmodium falciparum W-2
- assay.procedure: In vitro antimalarial activity, semiautomated microdilution (hypoxanthine incorporation), W-2 clone
- Format: cell-based
- measurement.parameters: Plasmodium falciparum; W-2 clone, Indochina origin, chloroquine-resistant and mefloquine-sensitive; read-out: In Vitro Antimalarial Activity IC50, W-2
property.name: IC50 (ng/mL)

• C[C@@H]1CC[C@H]2[C@@H](C)C(=O)O[C@@H]3O[C@@]4(C)CC[C@@H]1[C@]32OO4 = 1.21

1 = CCc1nc(N)nc(N)c1-c1ccc(Cl)cc1
2 = COc1ncnc(NS(=O)(=O)c2ccc(N)cc2)c1OC
3 = OC(c1cc(C(F)(F)F)nc2c(C(F)(F)F)cccc12)C1CCCCN1 (centres unmarked)
4 = CC1CCC2C(C)COC3OC4(C)CCC1C32OO4 (centres unmarked)
Query :: Please rank these molecules by IC50 in descending order. # answer = labels listed in requested order
Result :: 2, 1, 3, 4

Data origin, for the record: patent US5023353A
